Where do these numbers come from? They come from the NIST ThermoML archive (doi:10.1021/je300958c).

Please respond with reported relative permittivity at zero frequency for every item in the list.
Test: relative permittivity at zero frequency (dimensionless)
Settings: 293.15 K; 101.33 kPa; Liquid; impedance/gain phase analyzer
Numbers after ± are expanded uncertainties.

Req: Give reported relative permittivity at zero frequency value for `N#CCCCC#N`
Resp: 35.14 ± 0.1

Req: Check the records and state relative permittivity at zero frequency for `N#CCCCCCC#N`
Resp: 30.28 ± 0.1

Req: Give the reported relative permittivity at zero frequency for this compound. `N#CCCCCC#N`
Resp: 32.73 ± 0.1

Req: Look up and report measured relative permittivity at zero frequency for this entry: `N#CCCCCCCC#N`
Resp: 26.36 ± 0.1

* * *

Assay: relative permittivity at zero frequency (dimensionless)
Conditions: 278.15 K; 101.33 kPa; Liquid; impedance/gain phase analyzer
measurement type: relative permittivity at zero frequency
Provide a numeric answer; units are not to be included.

Req: Please report the measured relative permittivity at zero frequency for N#CCCCCCC#N [heptanedinitrile]
Resp: 32.04

Req: Assign relative permittivity at zero frequency to the following record: N#CCCCC#N [pentanedinitrile]
Resp: 36.83

Req: Answer with reported relative permittivity at zero frequency of N#CCCCCCCC#N [octanedinitrile]
Resp: 27.77

Req: Please look at this compound and report its relative permittivity at zero frequency: N#CCCCCC#N [hexanedinitrile]
Resp: 34.7

* * *

Test: relative permittivity at zero frequency (dimensionless)
Conditions: 303.15 K; 101.33 kPa; Liquid; impedance/gain phase analyzer
Numbers after ± are expanded uncertainties.
measurement type: relative permittivity at zero frequency

Req: Give relative permittivity at zero frequency for N#CCCCCC#N [hexanedinitrile]
Resp: 31.53 ± 0.1

Req: Identify relative permittivity at zero frequency associated with the molecule N#CCCCC#N [pentanedinitrile]
Resp: 34.04 ± 0.1

Req: Provide one value: measured relative permittivity at zero frequency of N#CCCCCCC#N [heptanedinitrile]
Resp: 29.18 ± 0.1

Req: Using the record for N#CCCCCCCC#N [octanedinitrile] , state its measured relative permittivity at zero frequency.
Resp: 25.55 ± 0.1

* * *

Experiment: relative permittivity at zero frequency (dimensionless)
Details: 315.65 K; 101.33 kPa; Liquid; impedance/gain phase analyzer
measurement type: relative permittivity at zero frequency
The answer should be a number; do not append a unit.

Req: Give reported relative permittivity at zero frequency value for `N#CCCCCCC#N`
Resp: 27.94

Req: For the molecule `N#CCCCC#N` , give its measured relative permittivity at zero frequency value.
Resp: 32.87

Req: Specify reported relative permittivity at zero frequency for the molecule shown: `N#CCCCCCCC#N`
Resp: 24.55

Req: Give the reported value of relative permittivity at zero frequency for this record: `N#CCCCCC#N`
Resp: 30.09

* * *

For each entry below, report its relative permittivity at zero frequency value.
Assay: relative permittivity at zero frequency (dimensionless)
Conditions: 333.15 K; 101.33 kPa; Liquid; impedance/gain phase analyzer
Lab note: write the figure by itself, no unit.

Req: Assign relative permittivity at zero frequency to the following record: `N#CCCCCCCC#N`
Resp: 23.3

Req: Answer with the recorded relative permittivity at zero frequency for the compound listed here: `N#CCCCCCC#N`
Resp: 26.32

Req: Please give the documented relative permittivity at zero frequency of `N#CCCCCC#N`
Resp: 28.21

Req: Give the measured relative permittivity at zero frequency for `N#CCCC#N`
Resp: 56.09

* * *

Assay: relative permittivity at zero frequency (dimensionless)
Details: 308.15 K; 101.33 kPa; Liquid; impedance/gain phase analyzer
measurement type: relative permittivity at zero frequency
Write the value as a bare number.

Req: Give a short answer stating reported relative permittivity at zero frequency for `N#CCCCCCC#N` .
Resp: 28.67

Req: Query relative permittivity at zero frequency for `N#CCCCC#N`
Resp: 33.59

Req: Give recorded relative permittivity at zero frequency. `N#CCCCCCCC#N`
Resp: 25.11

Req: Provide one value: measured relative permittivity at zero frequency of `N#CCCCCC#N`
Resp: 30.96

* * *

Assay: relative permittivity at zero frequency (dimensionless)
Settings: 318.15 K; 101.33 kPa; Liquid; impedance/gain phase analyzer
Provide the recorded relative permittivity at zero frequency for the entries that follow.
Just the number, please, no unit after it.

Req: Identify the reported relative permittivity at zero frequency for the following entry. `N#CCCCC#N`
Resp: 32.67

Req: Given `N#CCCCCCCC#N` , respond with its relative permittivity at zero frequency.
Resp: 24.37

Req: # return recorded relative permittivity at zero frequency for entry `N#CCCCCCC#N`
Resp: 27.68

Req: Dear colleague, please send me the reported relative permittivity at zero frequency for `N#CCCCCC#N` when you can.
Resp: 29.8

* * *

Exercise: for every item that follows, state its recorded relative permittivity at zero frequency.
Test: relative permittivity at zero frequency (dimensionless)
Conditions: 290.65 K; 101.33 kPa; Liquid; impedance/gain phase analyzer
Numbers after ± are expanded uncertainties.

Req: Look up and report measured relative permittivity at zero frequency for this entry: `N#CCCCCCC#N`
Resp: 30.57 ± 0.1

Req: Give the reported value of relative permittivity at zero frequency for this record: `N#CCCCCC#N`
Resp: 33.04 ± 0.1

Req: Specify measured relative permittivity at zero frequency for `N#CCCCC#N` .
Resp: 35.41 ± 0.1

Req: // fetch relative permittivity at zero frequency given entry `N#CCCCCCCC#N`
Resp: 26.6 ± 0.1

* * *

Assay: relative permittivity at zero frequency (dimensionless)
Settings: 310.65 K; 101.33 kPa; Liquid; impedance/gain phase analyzer
measurement type: relative permittivity at zero frequency
No unit in the answer, please; the number alone is enough.

Req: For the compound N#CCCCC#N [pentanedinitrile] , give its measured relative permittivity at zero frequency value.
Resp: 33.35

Req: Entry N#CCCCCCC#N [heptanedinitrile] needs its relative permittivity at zero frequency filled in; supply it.
Resp: 28.42

Req: State its relative permittivity at zero frequency for this compound: N#CCCCCC#N [hexanedinitrile]
Resp: 30.67

Req: In one line, give reported relative permittivity at zero frequency of the entry N#CCCCCCCC#N [octanedinitrile] .
Resp: 24.94

* * *

Test: relative permittivity at zero frequency (dimensionless)
Details: 285.65 K; 101.33 kPa; Liquid; impedance/gain phase analyzer
measurement type: relative permittivity at zero frequency
The answer should be a number; do not append a unit.

Req: Input `N#CCCCCCCC#N` , output reported relative permittivity at zero frequency.
Resp: 27.06

Req: State, in one line, measured relative permittivity at zero frequency of `N#CCCCCCC#N`
Resp: 31.14

Req: Give relative permittivity at zero frequency for the following compound: `N#CCCCCC#N`
Resp: 33.67

Req: Determine its reported relative permittivity at zero frequency: `N#CCCCC#N`
Resp: 35.97

* * *

For each of the compounds below, state its relative permittivity at zero frequency.
Experiment: relative permittivity at zero frequency (dimensionless)
Settings: 313.15 K; 101.33 kPa; Liquid; impedance/gain phase analyzer
Give the value as a plain number.

Req: Give the reported value of relative permittivity at zero frequency for this record: `N#CCCCCCC#N`
Resp: 28.17

Req: Return the recorded relative permittivity at zero frequency value; entry: `N#CCCCC#N`
Resp: 33.13

Req: Answer with reported relative permittivity at zero frequency of `N#CCCCCCCC#N`
Resp: 24.74

Req: Entry `N#CCCCCC#N` needs its relative permittivity at zero frequency filled in; supply it.
Resp: 30.38

* * *

Assay: relative permittivity at zero frequency (dimensionless)
Conditions: 280.65 K; 101.33 kPa; Liquid; impedance/gain phase analyzer
Kindly state relative permittivity at zero frequency for each of the entries shown.
Please state the value as a number alone, without comment.

Req: Specify relative permittivity at zero frequency for N#CCCCC#N [pentanedinitrile] and stop.
Resp: 36.56

Req: Tell me its relative permittivity at zero frequency given N#CCCCCC#N [hexanedinitrile] as the entry.
Resp: 34.35

Req: Consider the compound N#CCCCCCC#N [heptanedinitrile] . State its measured relative permittivity at zero frequency.
Resp: 31.73

Req: # return recorded relative permittivity at zero frequency for entry N#CCCCCCCC#N [octanedinitrile]
Resp: 27.52
